We begin with a simple list: items and their reported IC50.
- system-under-test: EGFR (L858R T790M C797S) (Homo sapiens, UniProt P00533, C797S/L858R/T790M)
- Construct: purchased SignalChem E10-122VG
- Sequence (P00533 25-1210 T790M/C797S/L858R): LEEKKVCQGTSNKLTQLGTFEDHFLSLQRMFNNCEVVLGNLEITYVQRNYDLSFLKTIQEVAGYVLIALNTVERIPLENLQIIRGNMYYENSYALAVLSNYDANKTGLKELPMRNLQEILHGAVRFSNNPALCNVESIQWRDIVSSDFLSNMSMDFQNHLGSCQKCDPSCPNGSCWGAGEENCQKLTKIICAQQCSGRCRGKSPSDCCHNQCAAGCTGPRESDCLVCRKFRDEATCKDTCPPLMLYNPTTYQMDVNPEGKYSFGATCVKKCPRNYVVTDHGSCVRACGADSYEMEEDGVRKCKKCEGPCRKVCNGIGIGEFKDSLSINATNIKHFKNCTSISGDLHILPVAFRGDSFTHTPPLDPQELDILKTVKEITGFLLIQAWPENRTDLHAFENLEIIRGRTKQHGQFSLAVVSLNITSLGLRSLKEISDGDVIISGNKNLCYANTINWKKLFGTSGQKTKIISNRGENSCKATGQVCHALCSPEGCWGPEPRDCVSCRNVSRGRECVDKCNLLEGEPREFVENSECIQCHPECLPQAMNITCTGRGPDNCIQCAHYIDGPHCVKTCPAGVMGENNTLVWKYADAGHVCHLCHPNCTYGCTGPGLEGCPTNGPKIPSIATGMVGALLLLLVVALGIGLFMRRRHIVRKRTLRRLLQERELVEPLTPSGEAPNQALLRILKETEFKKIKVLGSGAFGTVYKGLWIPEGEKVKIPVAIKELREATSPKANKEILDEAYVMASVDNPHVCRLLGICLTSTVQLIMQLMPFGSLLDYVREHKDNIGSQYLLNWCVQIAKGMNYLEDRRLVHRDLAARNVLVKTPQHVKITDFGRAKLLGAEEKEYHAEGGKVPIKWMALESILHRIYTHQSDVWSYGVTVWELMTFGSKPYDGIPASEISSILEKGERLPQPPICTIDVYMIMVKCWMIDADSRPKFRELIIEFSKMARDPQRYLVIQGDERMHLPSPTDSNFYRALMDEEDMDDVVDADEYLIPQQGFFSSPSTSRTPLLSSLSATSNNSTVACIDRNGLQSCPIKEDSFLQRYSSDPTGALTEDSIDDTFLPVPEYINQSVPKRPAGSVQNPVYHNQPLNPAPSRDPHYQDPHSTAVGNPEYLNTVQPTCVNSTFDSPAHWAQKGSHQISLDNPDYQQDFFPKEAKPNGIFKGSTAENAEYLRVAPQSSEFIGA
- assay-procedure: Biochemical EGFR inhibition assay (Caliper mobility shift), EGFR LRTMCS
- study-conditions: LRTMCS (PH) IC50 (nM) @ 1 mM ATP (Num), EGFR LRTMCS mutant

Study these solved cases before continuing.
COC[C@@H]1CCN1c1ncc(C(C)C)c2cc(Nc3ccnc(N4CC[C@@H](O)[C@@](C)(F)C4)n3)ncc12 [Example 29]	< 15 nM
CO[C@@H]1CCN(c2nccc(Nc3cc4c(C(C)C)cnc(N5C[C@H](OCCN)[C@H]5C)c4cn3)n2)C[C@@H]1F [Example 163]	< 15 nM
CC(C)c1cnc(N2CC[C@H]2[C@@H](C)O)c2cnc(Nc3ccnc(N4CC[C@@H](O)[C@@](C)(F)C4)n3)cc12 (single isomer, unassigned) [Example 65]	< 15 nM
CC(C)c1cnc(N2CC(N3CCCC3=O)C2)c2cnc(Nc3ccnc(N4CC[C@@H](O)[C@@](C)(F)C4)n3)cc12 [Example 91]	15 to 20 nM
CO[C@@H]1CCN(c2nccc(Nc3cc4c(C(C)C)ncc(N5CC(C(=O)N(C)C)C5)c4cn3)n2)C[C@@H]1O (single isomer, unassigned) [Example 121]	30 to 100 nM

Req: Specify reported IC50 for the compound shown: CC(C)c1cnc(N2CC(CCO)C2)c2cnc(Nc3ccnc(N4CC[C@@H](O)[C@@](C)(F)C4)n3)cc12 [Example 77]
Resp: 15 to 20 nM

Req: Quote IC50 reported for CC(C)c1cnc(N2CCC23CNC3)c2cnc(Nc3ccnc(N4CC[C@@]5(CCO5)C(F)(F)C4)n3)cc12 (single isomer, unassigned) [Example 191] please.
Resp: < 15 nM

Req: Tell me measured IC50 for CC(C)c1cnc(N2CCC23CN(C(C)C)C3)c2cnc(Nc3ccnc(N4CC[C@@H](O)[C@@](C)(F)C4)n3)cc12 [Example 193] please.
Resp: < 15 nM

Req: Supply IC50 value. Item: CC(C)c1cnc(N2CC[C@@]23CCN(C)C3)c2cnc(Nc3ccnc(N4CC[C@@H](O)[C@@](C)(F)C4)n3)cc12 (single isomer, unassigned) [Example 199]
Resp: < 15 nM

Req: Let me know recorded IC50 for CC(C)c1cnc(N2CC[C@@H](S(C)(=O)=O)C2)c2cnc(Nc3ccnc(N4CC[C@@H](O)[C@@](C)(F)C4)n3)cc12 [Example 74] , thanks.
Resp: < 15 nM

Req: Answer with the recorded IC50 of CC(C)c1cnc(N2CCC23CCN(C)CC3)c2cnc(Nc3ccnc(N4CC[C@@H](O)[C@@](C)(F)C4)n3)cc12 [Example 196] only.
Resp: < 15 nM

Req: Indicate the recorded IC50 value for this compound: C[C@H](CC#N)c1cnc(N2CC[C@H]2C)c2cnc(Nc3ccnc(N4CC[C@@H](O)[C@@](C)(F)C4)n3)cc12 (single isomer, unassigned) [Example 36]
Resp: < 15 nM

Req: Supply reported IC50 belonging to this compound: CC(C)c1cnc(N2CC[C@H]2C)c2cnc(Nc3ccnc(N4CCC(O)(CO)CC4)n3)cc12 [Example 131]
Resp: 15 to 20 nM
